- System: UACC-257 melanoma
- protocol notes: NCI tumour cell line growth inhibition, 48 h
Consider the following compounds and their measured TGI readings.

Some entries whose results are on file:
compound	TGI
Cc1cc(O)c2c(c1)C(=O)c1c(c(O)cc(O)c1-c1c(O)cc(O)c3c1C(=O)c1cc(C)cc(O)c1C3=O)C2=O	50 µM
CC12OC(CC(O)C1O)n1c3ccccc3c3c4c(c5c6ccccc6n2c5c31)C(=O)N(CCN1CCOCC1)C4=O (stereo unspecified)	7.64 µM
CCO/C(O)=C(/C(=N)N1CCOCC1)C(=O)NC(C)C	> 100 µM
N#C/C(=C\c1cc(O)c(O)c(O)c1)C(N)=O	> 100 µM
N#C/C(=C\c1c(O)cc(O)cc1O)C(N)=O	> 100 µM
Oc1ccc2c(=S)cc(-c3ccc(Br)cc3)oc2c1O	8.25 µM
C=C1C(=O)O[C@H](c2ccoc2)C[C@@H]1[C@@]1(C)CCCC2(C)C(=O)OCC21 (stereo partly specified)	> 100 µM
CCC12C=CCN(CCc3c([nH]c4ccccc34)/C=C\1)C2 (stereo unspecified)	> 100 µM

// recorded TGI for Cc1ccccc1NC(=O)/C(=N\NC(N)=S)C(C#N)c1ccccc1 (stereo unspecified) : > 100 µM

// recorded TGI for O=C(c1cscc1CCc1ccccc1)c1cscc1CCc1ccccc1 : > 100 µM

// recorded TGI for Cc1ccc(Nc2cccc3c2C(=O)c2cccc(Nc4ccc(C)cc4S(=O)(=O)O)c2C3=O)c(S(=O)(=O)O)c1 : > 100 µM

// recorded TGI for CNc1cc([N+](=O)[O-])ccc1C(=O)N1CCC[C@H]1CO : > 100 µM

* * *

- Test system: IGROV1 ovarian
- protocol notes: NCI tumour cell line growth inhibition, 48 h
measured property: GI50

Some entries whose results are on file:
compound	GI50
CCN1CCN(c2nc(C)cc(NCc3cc(Nc4ccnc5cc(Cl)ccc45)ccc3F)n2)CC1	2200 nM
Cc1ccc(N)cc1[As]=[As]c1cc(N)ccc1C (stereo not given)	1880 nM
COc1cccc2c1C(=O)c1c(O)c3c(c(O)c1C2=O)C[C@@](O)(C(=O)CO)CC3OC1CC(N)C(OC2CCCCO2)C(C)O1 (stereo not given in full)	15.8 nM
CCn1cc(CNc2ccc(C(=O)Nc3cc4cc(OC)c(OC)cc4c(C)n3)cc2)c(C)n1	> 100000 nM

# next compound below
// recorded GI50 for CCOc1cc(-c2nncn2C)ccc1Nc1ncc2cc(C)nc(NCC(C)(C)C)c2n1 : > 100000 nM

* * *

- Tested on: UACC-257 melanoma
- protocol notes: NCI tumour cell line growth inhibition, 48 h
measured property: TGI (µM)
Supply the numeric figure in µM, leaving out any unit text.

Some entries whose results are on file:
molecule	experimental system	TGI (µM)
C=CCn1c2ccccc2c2c3c(c4c5ccccc5n(CC=C)c4c21)C(=O)N(O)C3=O	UACC-257 melanoma	54.6
Nc1ccccc1C#C/C=C\C#Cc1ccccc1C#CCO	UACC-257 melanoma	45.2
NCCCNc1nc2ccccc2c2c(=O)c3cc(F)ccc3sc12	UACC-257 melanoma	3.81
C=CCCCCCCCCCP(=O)(c1ccccc1)c1ccc2c(c1)OCCOCCOCCOCCO2 (stereo not given)	UACC-257 melanoma	30.6
Cc1ccccc1NC(=O)Cc1nc2ccccc2s1	UACC-257 melanoma	30.8
O=C1Nc2ccc(Br)cc2/C1=N/S(=O)(=O)O	UACC-257 melanoma	31.4
C=C1C(=O)O[C@H]2[C@H]1CC/C(COC(=O)c1cccnc1N)=C\CC[C@@]1(C)O[C@@H]21	UACC-257 melanoma	12.6

# next molecule below
Let me check: CN(C)NC1=C([N+](=O)[O-])C=NN(c2ccccc2)C1 , system UACC-257 melanoma, measured TGI is 3.57

* * *

Consider the following molecules and their measured TGI readings.
- Test system: U251 CNS
- protocol notes: NCI tumour cell line growth inhibition, 48 h
*1 amine or outer side, *2 acyl side, *3 side chain or, on linkers, in order; H or OH if unused. Where a SMILES comes first, the peptide text is derived from it. Bridges are numbered along the chain shown (N, C = ends). [ ]: non-standard residue; d: D form. X35 = CC[C@H](C)[C@@H](N[*:1])[C@@H](O)CC(=O)O[C@H](C(=O)[C@H](C)C(=O)[*:2])C(C)C; NMeY = CN[C@@H](Cc1ccc(O)cc1)C(=O)O

// recorded TGI for O=C(Sc1c(-c2ccccc2)c(=O)n(-c2ccccc2)c(=S)n1-c1ccccc1)c1ccccc1 : > 100 µM

// recorded TGI for O=C(NN1C(=O)CS(=O)(=O)C1c1ccc(Cl)c(Cl)c1)c1ccncc1 (stereo unspecified) : > 100 µM

// recorded TGI for Nc1cccc2c1-c1c(cccc1[N+](=O)[O-])C2=O : > 100 µM

// recorded TGI for Cc1cc(C)c(NS(=O)c2cccc(C(F)(F)F)c2)c(C)c1 (stereo unspecified) : > 100 µM

// recorded TGI for COc1ccc(CN2C(=O)[C@@H]3Cc4c(OC)c(C)c(OC)c(OC)c4[C@H](/C2=C\c2cc(OC)c(OC)c(C)c2OC)N3C(=O)OC(C)C)cc1 : > 100 µM

// recorded TGI for C/C(=N\NC(=O)c1ccncc1)c1sc(-n2nc(-c3ccccc3)cc2-c2ccccc2)nc1C : > 31.6 µM

// recorded TGI for Cc1ccccc1NC(=O)Cc1nc2ccccc2s1 : 24.1 µM

// recorded TGI for O/N=C(\CC(O)(C(F)(F)F)C(F)(F)F)c1cccs1 : > 10 µM

// recorded TGI for C=C1c2nc3ccccc3n2C=C(c2cccc(Cl)c2)N1Cc1ccc(OC)cc1 : > 100 µM

// recorded TGI for CN1CCC2(CC1)N=C(SCC(=O)Nc1cnc3ccccc3c1)C(c1ccc(Br)cc1)=N2 : 3.65 µM

// recorded TGI for C=C(C)C1CC[C@@](C)(O)[C@H](C#N)C1 (stereo partly specified) : > 100 µM

// recorded TGI for CC(=O)OCC1(C)C(O)CCC2(C)C1CCC1CC3CC12CCC3(O)CO (stereo unspecified) : > 100 µM

// recorded TGI for CC(=O)NS(=O)(=O)c1ccc(NCc2cccc3c(=O)c4ccc(Cl)cc4oc23)cc1 : > 100 µM

// recorded TGI for Cc1ccc2c(c1)-c1c3c(nn1C)-c1ccccc1SC3O2 (stereo unspecified) : > 100 µM

// recorded TGI for C=C(Cl)/C(=C\Cl)CCC(Cl)C(C)C (stereo unspecified) (tested in a mixture with another compound) : 30.1 µM

// recorded TGI for COc1ccc(-c2sc(Br)c3c2C(=O)C2OC(=O)NC32)cc1OC (stereo unspecified) : > 100 µM

// recorded TGI for C=C(C)[C@H]1CC[C@@]23O[C@@H]2[C@@H](C[C@@]2(C)CC(=O)[C@H](CC(=O)C1)O2)OC(=O)[C@@]12CC[C@H](C(=C)C)CC(=O)C[C@H]4O[C@](C)(CC4=O)C[C@@H](OC3=O)[C@@H]1O2 : > 100 µM

// recorded TGI for C/C=C(\N=C=S)C(=O)OC1C(COC(C)=O)OC([C@]2(O)CC(=O)C(=N)C(C(=O)O)=C2O)C(O)C1OC1CC(OC)C(O)([C@@H](C)OC(=O)[C@@H](C)CC)C(C)O1 (stereo partly specified) : 21.8 µM

// recorded TGI for CC[C@H](C)[C@H]1NC(=O)[C@@H](N)[C@@H](C)OC(=O)[C@H](Cc2ccc(OC)cc2)N(C)C(=O)[C@@H]2CCCN2C(=O)[C@H](CC(C)C)NC(=O)[C@@H](C)C(=O)[C@H](C(C)C)OC(=O)C[C@@H]1O (H-T[X35]LP[NMeY](Me); ester 1-C) : > 100 µM

// recorded TGI for COC(=O)/C=C/CCC#Cc1ccccc1C#CCC/C=C/C(=O)OC : > 100 µM

// recorded TGI for N#C/C(=C\c1c(O)cc(O)cc1O)C(N)=O : > 100 µM

// recorded TGI for C[C@@H](Nc1cc(F)cc(F)c1)c1cc(C(=O)N(C)C)cc2c(=O)cc(N3CCOCC3)oc12 : > 100 µM

// recorded TGI for COc1ccc2c(c1)CCc1c-2[nH]c2cc3c(cc2c1=O)OCO3 : > 100 µM

// recorded TGI for O=c1[nH]c2c(c(=O)[nH]1)SC(c1ccccc1)C2 (stereo unspecified) : > 100 µM

* * *

Consider the following compounds and their measured log10 of TGI readings.
- Tested on: NCI/ADR-RES ovarian
- protocol notes: NCI tumour cell line growth inhibition, 48 h
In our notation, the value equals log10 of TGI in µM.

compound	log10 of TGI
O=C(/C=C/c1ccccc1)c1cccc2ccccc12	1.29

# next compound below
Let me check: CCOC(=O)C1=C(C)N(c2ccc(Cl)cc2)C2(O)C=CC(=O)C3=C(O)c4ccccc4C(=O)C312 (configuration not stated) , system NCI/ADR-RES ovarian, measured log10 of TGI is 1.10
